Where do the numbers come from? From patent US9981972B2.

- Study System: LYPLA2 (Mus musculus, UniProt Q9WTL7)
- Construct: a complex proteome endogenously expressing LYPLA1/2 was incubated with test compound; from tissue; host or cells: mouse brain, membrane fraction
- Sequence (Q9WTL7 whole entry): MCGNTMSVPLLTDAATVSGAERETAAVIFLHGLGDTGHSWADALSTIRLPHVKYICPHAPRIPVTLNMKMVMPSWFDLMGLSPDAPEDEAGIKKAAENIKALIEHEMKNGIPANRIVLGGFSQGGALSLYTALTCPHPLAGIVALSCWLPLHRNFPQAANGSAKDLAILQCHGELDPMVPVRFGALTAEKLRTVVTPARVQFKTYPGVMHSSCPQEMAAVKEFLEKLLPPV
- Assay Explanation: Gel-based competitive ABPP in vitro, mouse brain membrane proteome
- Assay type: biochemical
- Settings: 1 μM compound, 30 min, one replicate; read-out: LYPLA2 % INH 1 μM
Observed Property: inhibition at 1 µM (%)

Solved cases (5 shown):
O=C(ON1C(=O)C2CN(Cc3ccc(Br)cc3)CCN2C1=O)N1CCC(CCc2ccc(Cl)cc2)CC1 (stereo not shown) :: 10
CC(C)(C)OC(=O)N1CCN2C(=O)N(OC(=O)N3CCOCC3Cc3ccccc3)C(=O)C2C1 (stereo not shown) :: 0
O=C(ON1C(=O)C2CN(C(=O)c3ccc(Br)cc3)CCN2C1=O)N1CCC(CCc2ccc(Cl)cc2)CC1 (stereo not shown) :: 80
O=C(Cc1ccccc1)N1CCN2C(=O)N(OC(=O)N3CCC(CCc4ccc(Cl)cc4)CC3)C(=O)C2C1 (stereo not shown) :: 95
O=C(ON1C(=O)C2CN(C(=O)c3ccc(F)c([N+](=O)[O-])c3)CCN2C1=O)N1CCC(CCc2ccc(Cl)cc2)CC1 (stereo not shown) :: 90

a. CC(C)(C)OC(=O)N1CCN2C(=O)N(OC(=O)N3CCC(C(=O)Nc4ccccc4)CC3)C(=O)C2C1 (stereo not shown)
b. O=C(ON1C(=O)C2CN(C(=O)N3CCCC3)CCN2C1=O)N1CCC(CCc2ccc(Cl)cc2)CC1 (stereo not shown)
c. CC(C)(C)OC(=O)N1CCN2C(=O)N(OC(=O)N3CCN(C(c4ccc(Cl)cc4)c4ccc(Cl)cc4)CC3)C(=O)C2C1 (stereo not shown)
Asked: Task for the reader: rank each entry by its inhibition at 1 µM, from the minimum upward. Rank them, then answer with their labels in that order.
Given back: a, c, b
(a: 0%, c: 10%, b: 100%)

* * *

- Study System: LYPLA2 (Mus musculus, UniProt Q9WTL7)
- Construct: a complex proteome endogenously expressing LYPLA1/2 was incubated with test compound; from tissue; host or cells: mouse brain, membrane fraction
- Assay Explanation: Gel-based competitive ABPP in vitro, mouse brain membrane proteome
- Type: biochemical
- Settings: 0.1 μM compound, 30 min, one replicate; read-out: LYPLA2 % INH 0.1 μM
Observed Property: inhibition at 0.1 µM (%)

Solved cases (3 shown):
CC(C)(C)OC(=O)N1CCN2C(=O)N(OC(=O)N3CCN(CCc4ccccc4)CC3)C(=O)C2C1 (stereo not drawn) :: 0
O=C(ON1C(=O)C2CN(C(=O)c3ccc(Br)cc3)CCN2C1=O)N1CCC(CCc2ccc(Cl)cc2)CC1 (stereo not drawn) :: 0
O=C(Cc1ccccc1)N1CCN2C(=O)N(OC(=O)N3CCC(CCc4ccc(Cl)cc4)CC3)C(=O)C2C1 (stereo not drawn) :: 25

P. O=C(ON1C(=O)C2CN(CCc3ccccc3)CCN2C1=O)N1CCC(CCc2ccc(Cl)cc2)CC1 (stereo not drawn)
Q. CC(C)(C)OC(=O)N1CCN2C(=O)N(OC(=O)N3CCC(CCc4ccc(Cl)cc4)CC3)C(=O)C2C1 (stereo not drawn)
Asked: Please let me know which one, P or Q , has a lower measured inhibition at 0.1 µM value. Select an item and report its label.
Given back: P
(P: 0%, Q: 50%)

* * *

- Study System: human LYPLA2 (Homo sapiens)
- Construct: endogenous human LYPLA1/2 in a HeLa soluble proteome; endogenous in cells; host or cells: HeLa (soluble proteome in vitro; cultured cells in situ)
- Sequence (O95372 whole entry): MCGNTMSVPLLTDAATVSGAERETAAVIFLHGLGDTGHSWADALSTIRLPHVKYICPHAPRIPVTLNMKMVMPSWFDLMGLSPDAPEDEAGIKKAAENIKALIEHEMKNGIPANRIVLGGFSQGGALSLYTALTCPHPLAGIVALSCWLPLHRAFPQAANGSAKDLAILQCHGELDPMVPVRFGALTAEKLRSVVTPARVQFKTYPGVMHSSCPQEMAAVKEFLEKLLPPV
- Assay Explanation: IC50 by gel-based competitive ABPP in vitro, soluble HeLa cell proteome
- Type: biochemical
- Settings: human LYPLA isoform, three replicates; Table 2 prints no unit, nM; read-out: LYPLA2 IC50
Observed Property: IC50 (nM)

CC(C)(C)CC(=O)N1CCN2C(=O)N(OC(=O)N3CCC(CCc4ccc(Cl)cc4)CC3)C(=O)C2C1 (stereo not shown) :: 217

a. O=C(ON1C(=O)C2CN(C(=O)N3CCCC3)CCN2C1=O)N1CCC(CCc2ccc(Cl)cc2)CC1 (stereo not shown)
b. O=C(ON1C(=O)C2CN(C(=O)N3CCCCC3)CCN2C1=O)N1CCC(CCc2ccc(Cl)cc2)CC1 (stereo not shown)
c. O=C(ON1C(=O)C2CN(C(=O)c3ccc(Br)cc3)CCN2C1=O)N1CCC(CCc2ccc(Cl)cc2)CC1 (stereo not shown)
Asked: Task for the reader: rank each entry by its IC50, from the minimum upward. Rank them, then answer with their labels in that order.
Given back: b, a, c
(b: 258 nM, a: 384 nM, c: 726 nM)
